- measured_target: T1, CD28 endogenously expressed on Jurkat/IL2 reporter cells (human, UniProt P10747 19-220)
- T1 construct: also called Jurkats (CD28)
- assay_notes: flow cytometry, Jurkat cells (CD28)
metric: MFI at 33.3 nM
Could you write the number and then its unit?

Any idea what MFI at 33.3 nM was measured for variant CD80 IgV-Fc D46V/M47L/L85Q (Fc fusion, not shown: small tags and cut ends; a dimerising Fc or GST) VIHVTKEVKEVATLSCGHNVSVEELAQTRIYWQKEKKMVLTMMSGVLNIWPEYKNRTIFDITNNLSIVILALRPSDEGTYECVVQKYEKDAFKREHLAEVTLSVKAD ?
567 MFI

Queued: variant CD80 IgV-Fc M47V/K89N (Fc fusion, not shown: small tags and cut ends; a dimerising Fc or GST) VIHVTKEVKEVATLSCGHNVSVEELAQTRIYWQKEKKMVLTMMSGDVNIWPEYKNRTIFDITNNLSIVILALRPSDEGTYECVVLKYENDAFKREHLAEVTLSVKAD
197 MFI

Also, variant CD80 IgV-Fc L85Q (Fc fusion, not shown: small tags and cut ends; a dimerising Fc or GST) VIHVTKEVKEVATLSCGHNVSVEELAQTRIYWQKEKKMVLTMMSGDMNIWPEYKNRTIFDITNNLSIVILALRPSDEGTYECVVQKYEKDAFKREHLAEVTLSVKAD please.
35 MFI

Do the same for variant CD80 IgV-Fc M47L/L85Q (Fc fusion, not shown: small tags and cut ends; a dimerising Fc or GST) VIHVTKEVKEVATLSCGHNVSVEELAQTRIYWQKEKKMVLTMMSGDLNIWPEYKNRTIFDITNNLSIVILALRPSDEGTYECVVQKYEKDAFKREHLAEVTLSVKAD please
88.1 MFI

Please answer likewise for variant CD80 IgV-Fc M47V/N48K (Fc fusion, not shown: small tags and cut ends; a dimerising Fc or GST) VIHVTKEVKEVATLSCGHNVSVEELAQTRIYWQKEKKMVLTMMSGDVKIWPEYKNRTIFDITNNLSIVILALRPSDEGTYECVVLKYEKDAFKREHLAEVTLSVKAD
413 MFI

What do we get for variant CD80 IgV-Fc E35D/M47L/V68M (Fc fusion, not shown: small tags and cut ends; a dimerising Fc or GST) VIHVTKEVKEVATLSCGHNVSVEELAQTRIYWQKDKKMVLTMMSGDLNIWPEYKNRTIFDITNNLSIMILALRPSDEGTYECVVLKYEKDAFKREHLAEVTLSVKAD ?
1240 MFI

Follow-up entry: variant CD80 IgV-Fc E35D/D46V/M47L/L85Q (Fc fusion, not shown: small tags and cut ends; a dimerising Fc or GST) VIHVTKEVKEVATLSCGHNVSVEELAQTRIYWQKDKKMVLTMMSGVLNIWPEYKNRTIFDITNNLSIVILALRPSDEGTYECVVQKYEKDAFKREHLAEVTLSVKAD
268 MFI

Next entry: variant CD80 IgV-Fc E35D/D46V/L85Q (Fc fusion, not shown: small tags and cut ends; a dimerising Fc or GST) VIHVTKEVKEVATLSCGHNVSVEELAQTRIYWQKDKKMVLTMMSGVMNIWPEYKNRTIFDITNNLSIVILALRPSDEGTYECVVQKYEKDAFKREHLAEVTLSVKAD
196 MFI
